assay.remarks: Inhibition of Influenza A virus (A/Kitakyushu/159/93(H3N2)) sialidase
Recorded IC50, one value per entry.
State the answer as a number, implicitly in nM.

In: GET /values?readout=IC50&item= `CC(=O)N[C@H]1[C@H]([C@H](O)[C@H](O)CO)OC(C(=O)O)=C[C@@H]1NC(=N)N`
Out: 9.3

Alright, here's another compound for you.
In: What measured IC50 goes with `CO[C@@H]([C@@H]1OC(C(=O)O)=C[C@H](NC(=N)N)[C@H]1NC(C)=O)[C@H](O)CO` ?
Out: 23.5

---

// reported IC50 for each item listed
Tested on: Influenza A virus
assay.remarks: Antiviral activity against Influenza A virus (A/Puerto Rico/8/34(H1N1)) assessed viral plaque reduction
Assay type: functional, organism-based
experimental.conditions: A/Puerto Rico/8/1934(H1N1)
Numeric answer only, unit nM assumed.

In: Sample CO[C@@H]([C@@H]1OC(C(=O)O)=C[C@H](NC(=N)N)[C@H]1NC(C)=O)[C@H](O)CO [LANINAMIVIR] — what was its IC50?
Out: 2.2

Please turn your attention to the following entry.
In: Look up IC50: CC(=O)N[C@H]1[C@H]([C@H](O)[C@H](O)CO)OC(C(=O)O)=C[C@@H]1NC(=N)N [ZANAMIVIR]
Out: 11

---

Tested on: H5N1 subtype
assay.remarks: Antiviral activity against Influenza A virus (A/R(duck/Mongolia/54/01-duck/Mongolia/47/01) (H5N1)) assessed viral plaque reduction
Assay type: functional, organism-based
reported.property: IC50 (pM)
Give a bare numeral; the unit pM is implied.

In: I would be grateful if you could share the reported IC50 for `CO[C@@H]([C@@H]1OC(C(=O)O)=C[C@H](NC(=N)N)[C@H]1NC(C)=O)[C@H](O)CO` .
Out: 340

# input for lookup
In: For the compound shown here, `CC(=O)N[C@H]1[C@H]([C@H](O)[C@H](O)CO)OC(C(=O)O)=C[C@@H]1NC(=N)N` , give the reported IC50.
Out: 790

---

System: Influenza A virus H3N2
assay.remarks: Antiviral activity against Influenza A virus (A/Kitakyushu/159/93(H3N2)) assessed viral plaque reduction
Format: functional, organism-based
reported.property: IC50 (nM)
Write the value in nM as a bare number.

In: # get_value(readout='IC50', item= `CO[C@@H]([C@@H]1OC(C(=O)O)=C[C@H](NC(=N)N)[C@H]1NC(C)=O)[C@H](O)CO` )
Out: 1.7

In: And the next one, `CC(=O)N[C@H]1[C@H]([C@H](O)[C@H](O)CO)OC(C(=O)O)=C[C@@H]1NC(=N)N` ?
Out: 3.3
